Target: T1, Human IGF-1R protein (human, UniProt P08069 31-932)
T1 construct: Bought protein; also called human IGF-1R (ARCO, No. IGR-H5229)
T1 sequence (P08069 31-932 limits assumed): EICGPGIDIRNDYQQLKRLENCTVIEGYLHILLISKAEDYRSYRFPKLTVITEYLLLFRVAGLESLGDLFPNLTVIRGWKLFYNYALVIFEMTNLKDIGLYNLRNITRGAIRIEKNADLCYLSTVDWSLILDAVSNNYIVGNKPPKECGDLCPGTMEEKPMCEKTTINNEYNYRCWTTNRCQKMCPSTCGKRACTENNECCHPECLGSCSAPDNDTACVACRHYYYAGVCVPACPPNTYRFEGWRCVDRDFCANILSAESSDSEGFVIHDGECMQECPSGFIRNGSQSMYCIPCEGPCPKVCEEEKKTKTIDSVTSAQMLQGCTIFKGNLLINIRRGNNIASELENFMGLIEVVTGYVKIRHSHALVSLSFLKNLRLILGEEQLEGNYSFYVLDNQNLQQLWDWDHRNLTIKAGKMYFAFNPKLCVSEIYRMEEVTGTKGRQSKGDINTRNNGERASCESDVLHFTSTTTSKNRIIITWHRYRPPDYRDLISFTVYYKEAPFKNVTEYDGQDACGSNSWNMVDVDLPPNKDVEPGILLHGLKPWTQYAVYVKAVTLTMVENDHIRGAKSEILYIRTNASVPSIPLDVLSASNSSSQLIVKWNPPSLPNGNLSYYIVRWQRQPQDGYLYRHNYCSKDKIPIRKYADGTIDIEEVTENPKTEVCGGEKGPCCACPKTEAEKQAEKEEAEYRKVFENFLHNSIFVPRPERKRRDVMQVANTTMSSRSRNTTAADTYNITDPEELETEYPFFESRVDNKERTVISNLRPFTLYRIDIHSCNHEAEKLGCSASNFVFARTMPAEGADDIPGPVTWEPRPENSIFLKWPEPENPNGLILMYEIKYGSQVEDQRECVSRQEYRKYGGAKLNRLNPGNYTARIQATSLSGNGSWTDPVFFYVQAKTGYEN
Assay: BLI (Octet RED96), antibody captured on AHC biosensor, IGF-1R in solution, 1:1 model
# kon per entry
# unit: M⁻¹ s⁻¹ | format: bare number

{"Binder": "PHP1003-7 (antibody, human IgG1, kappa, L234A L235A, V domains shown, Variable and constant regions are directly spliced) VH: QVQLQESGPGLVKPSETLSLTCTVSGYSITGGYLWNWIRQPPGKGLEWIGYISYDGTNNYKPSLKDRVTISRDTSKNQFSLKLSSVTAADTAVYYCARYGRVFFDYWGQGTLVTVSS VL: DIVMTQSPLSLPVTPGEPASISCRSSQSIVHSNGNTYLQWYLQKPGQSPQLLIYKVSNRLYGVPDRFSGSGSGTDFTLKISRVEAEDVGVYYCFQGSHVPWTFGQGTKVEIKR", "Outcome measure": "kon", "Value": 98300}
{"Binder": "PHP1003-5 (antibody, human IgG1, kappa, L234A L235A, V domains shown, Variable and constant regions are directly spliced) VH: EVQLLESGGGLVQPGGSLRLSCTASGFTFSSYAMNWVRQAPGKGLEWVSAISGSGGTTFYADSVKGRFTISRDNSRTTLYLQMNSLRAEDTAVYYCAKDLGWSDSYYYYYGMDVWGQGTTVTVSS VL: DIQMTQFPSSLSASVGDRVTITCRASQGIRNDLGWYQQKPGKAPKRLIYAASRLHRGVPSRFSGSGSGTEFTLTISSLQPEDFATYYCLQHNSYPCSFGQGTKLEIKR", "Outcome measure": "kon", "Value": 565000}
{"Binder": "PHP1003-6 (antibody, human IgG1, kappa, L234A L235A, V domains shown, Variable and constant regions are directly spliced) VH: QVQLQESGGGVVQPGRSLRLSCSASGFTFSDYYMYWVRQAPGKGLEWVAYITNYGGSTYYPDTVKGRFTISRDNAKNTLFLQMDSLRPEDTGVYFCARQSNYDYDGWFAYWGQGTPVTVSS VL: DIQLTQSPSSLSASVGDRVTITCKASQEVGTAVAWYQQKPGKAPKLLIYWASTRHTGVPSRFSGSGSGTDFTFTISSLQPEDIATYFCQQYSNYPLTFGQGTKVEIKR", "Outcome measure": "kon", "Value": 422000}
{"Binder": "PHP1003-2 (antibody, human IgG1, kappa, L234A L235A, V domains shown, Variable and constant regions are directly spliced) VH: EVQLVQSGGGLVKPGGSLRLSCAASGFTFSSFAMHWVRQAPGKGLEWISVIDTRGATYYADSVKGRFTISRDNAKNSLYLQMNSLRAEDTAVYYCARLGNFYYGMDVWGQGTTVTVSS VL: EIVLTQSPGTLSVSPGERATLSCRASQSIGSSLHWYQQKPGQAPRLLIKYASQSLSGIPDRFSGSGSGTDFTLTISRLEPEDFAVYYCHQSSRLPHTFGQGTKVEIKR", "Outcome measure": "kon", "Value": 228000}

Moving on to the next binder.
Fill in reported kon for this entry: PHP1003-4 (antibody, human IgG1, kappa, L234A L235A, V domains shown, Variable and constant regions are directly spliced) VH: EVQLVQSGAEVKKPGSSVKVSCKASGGTFSSYAISWVRQAPGQGLEWMGGIIPIFGTANYAQKFQGRVTITADKSTSTAYMELSSLRSEDTAVYYCARAPLRFLEWSTQDHYYYYYMDVWGKGTTVTVSS VL: SSELTQDPAVSVALGQTVRITCQGDSLRSYYATWYQQKPGQAPILVIYGENKRPSGIPDRFSGSSSGNTASLTITGAQAEDEADYYCKSRDGSGQHLVFGGGTKLTVLR 247000

Provenance of the data: patent US20230127946A1
